# System name: T1, human TIGIT protein (human, UniProt Q495A1 22-141, limits assumed)
# T1 construct: Recombinant protein (Genentech) used in ELISA screening and as SPR analyte; also called TIGIT antigen
# T1 sequence: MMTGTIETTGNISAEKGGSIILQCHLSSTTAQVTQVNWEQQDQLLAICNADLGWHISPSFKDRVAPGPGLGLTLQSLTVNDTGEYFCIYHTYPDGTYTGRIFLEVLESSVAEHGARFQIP
# Test: SPR, captured mAb
Here the recorded Kd is given for each entry.
Form entry: value (nM) — number only.

Quick one: Kd for h10A5.L4H4 (antibody, V domains shown, Fully humanized version; FR/HVR pieces in order) VH: EVTLKESGPALVKPTQTLTLTCTFSGFSLTTYGMGVSWIRQPPGKALEWLASIWWNGNTYYNPSLRSRLTITKDTSKNQVVLTMTNMDPVDTATYYCAHTGGAVITWFAYWGQGTLVTVSS VL: EIVMTQSPATLSVSPGERATLSCKASQSVGKNIAWYQQKPGQAPRLLIYYASNRYTGIPARFSGSGSGTEFTLTISSLQSEDFAVYYCQHIYNSPYPFGQGTKVEIK ?
0.44

I'd like to know its Kd. The binder in question is h15C8.L4H1 (antibody, V domains shown, VL: F87Y against h15C8.L1H1; FR/HVR pieces) VH: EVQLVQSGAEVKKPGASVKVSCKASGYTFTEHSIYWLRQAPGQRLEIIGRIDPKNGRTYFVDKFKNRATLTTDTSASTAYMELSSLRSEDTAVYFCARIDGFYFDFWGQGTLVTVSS VL: DIQLTQSPSFLSASVGDRVTITCKGSQNVNKYLVWYQQKPGKAPKLLIYSTDNLQSGIPSRFSGSGSGTEYTLTISSLQPEDFATYYCYQYNNGFTFGQGTKVEIK
0.64

// Kd lookup, key: h15C8.L1H2 (antibody, V domains shown, VH: L37V against h15C8.L1H1; FR/HVR pieces) VH: EVQLVQSGAEVKKPGASVKVSCKASGYTFTEHSIYWVRQAPGQRLEIIGRIDPKNGRTYFVDKFKNRATLTTDTSASTAYMELSSLRSEDTAVYFCARIDGFYFDFWGQGTLVTVSS VL: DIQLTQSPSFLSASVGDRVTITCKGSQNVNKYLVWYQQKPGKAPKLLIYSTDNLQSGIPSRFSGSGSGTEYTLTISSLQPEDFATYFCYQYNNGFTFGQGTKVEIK
1.03
